# maps each entry to its IC50
# Tested on: HeLa
# procedure.details: Cytotoxicity against human HeLa cells after 48 hrs by MTT assay
# Format: functional, cell-based

# compound, target.system, IC50
measured = [
    ("CC(=O)OC1=CC(C)(C)Oc2c(CC=C(C)C)cc(O)cc21", "HeLa", "99.3 µM"),
    ("CC(C)=CC=C1C2=C(C[C@H](O)[C@@H]1O)C(=O)CC(C)(C)O2 (mixture of isomers)", "HeLa", "> 144 µM"),
    ("O=c1[nH]cc(F)c(=O)[nH]1", "HeLa", "10 µM"),
    ("CC1(C)CC(=O)C2=C(O1)C1=C[C@@H](C(C)(C)O)O[C@H]1[C@@H](O)C2", "HeLa", "> 136 µM"),
    ("CC(C)=CC[C@]12O[C@H]1[C@@H](O)CC1=C2OC(C)(C)CC1=O", "HeLa", "> 144 µM"),
    ("CC(C)=CCc1cc(O)cc2c1OC(C)(C)CC2=O", "HeLa", "21.2 µM"),
    ("COC(=O)c1cc(OC)cc(O)c1C(=O)c1c(O)cc(C)c(C2=CC(C)(C)Oc3c(CC=C(C)C)cc(O)cc32)c1O", "HeLa", "8.7 µM"),
]
